Data provenance: patent US9062041B2

study_system: EP2 subtype of the human PGE2 receptor (Homo sapiens, UniProt P43116)
Sequence (P43116 whole entry): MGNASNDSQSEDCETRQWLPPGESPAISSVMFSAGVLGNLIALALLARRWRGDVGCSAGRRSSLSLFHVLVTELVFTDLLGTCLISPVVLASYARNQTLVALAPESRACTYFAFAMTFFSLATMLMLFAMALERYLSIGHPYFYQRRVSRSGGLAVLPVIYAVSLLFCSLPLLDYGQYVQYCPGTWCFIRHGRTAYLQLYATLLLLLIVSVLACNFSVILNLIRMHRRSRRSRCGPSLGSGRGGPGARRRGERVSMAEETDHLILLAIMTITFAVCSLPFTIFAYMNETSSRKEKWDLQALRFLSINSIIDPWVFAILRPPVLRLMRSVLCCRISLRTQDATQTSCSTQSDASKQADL
procedure_text: cAMP antagonism test on the human EP2 receptor (HTRF cAMP detection)
Type: cell-based
experimental_context: hEP2 receptor, read-out: Antagonism hEP2 IC50
outcome_measure: pIC50
The meaning of pIC50 here: minus log10 of the concentration in molar units.

• COCCNC(=O)c1ccc2nn(CC3CCN(C(=O)c4ccc(-c5cncc(C(F)(F)F)c5)cc4)CC3)cc2c1C [Example 387] = 7.88
• COCCNC(=O)c1ccc2nn(CC3CCN(C(=O)c4ccc(C5CC5)cc4)CC3)cc2c1C [Example 20] = 8.13
• COCCNC(=O)c1ccc2nn(CC3CCN(C(=O)c4ccc(-c5ccccc5)c(F)c4)CC3)cc2c1C [Example 49] = 8.19

Determine from records and report pIC50 for Cc1c(C(=O)NCC(C)(C)C)ccc2nn(CC3CCN(C(=O)c4ccc(Cl)cc4)CC3)cc12 [Example 251]
5.42

Determine from records and report pIC50 for COCCNC(=O)c1ccc2nn(CC3CCN(C(=O)c4ccc(-c5cccc(C(F)(F)F)n5)cc4)CC3)cc2c1C [Example 369]
8.25

Determine from records and report pIC50 for Cc1c(C(=O)NCCOC(C)C)ccc2nn(CC3CCN(C(=O)c4ccc(C5CC5)cc4)CC3)cc12 [Example 101]
8.18

Determine from records and report pIC50 for COc1ccc(-c2ccc(C(=O)N3CCC(Cn4cc5c(C)c(C(=O)NCC(F)(F)F)ccc5n4)CC3)cc2)c(C)c1 [Example 318]
7.58

----------
study_system: human PGD receptor (Homo sapiens, UniProt Q13258)
Sequence (Q13258 whole entry): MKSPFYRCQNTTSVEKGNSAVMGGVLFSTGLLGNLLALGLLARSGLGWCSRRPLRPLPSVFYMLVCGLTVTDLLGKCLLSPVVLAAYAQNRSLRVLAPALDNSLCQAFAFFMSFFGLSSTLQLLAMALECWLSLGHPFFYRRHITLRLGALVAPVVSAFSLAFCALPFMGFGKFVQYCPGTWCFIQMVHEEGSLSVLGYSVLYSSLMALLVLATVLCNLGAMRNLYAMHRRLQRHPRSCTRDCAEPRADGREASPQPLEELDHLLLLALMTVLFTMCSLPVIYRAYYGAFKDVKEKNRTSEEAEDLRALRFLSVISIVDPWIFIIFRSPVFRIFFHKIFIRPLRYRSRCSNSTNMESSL
procedure_text: cAMP antagonism test on the human prostaglandin D receptor (HTRF cAMP detection)
Type: cell-based
experimental_context: selectivity towards hDP, IC50 measured by cAMP antagonism test
Source text: 3. Detection of Antagonism to the Human Prostaglandin D Receptor Signal The binding of prostaglandin D2 to the human PGD receptor induces the activation of membrane-located adenylate cyclases and leads to the formation of cAMP. […] In this test, the cAMP present in the lysate competes with a fluorescence-labelled cAMP (cAMP-d2) for binding to an Eu cryptate-labelled anti-cAMP antibody. […]
outcome_measure: Selectivity hEP2/hDP

• COc1c(C(=O)NCC(F)(F)F)ccc2nn(CC3CCN(C(=O)c4ccc(Cl)cc4)CC3)cc12 = xx (xx: 10-100)
• Cc1c(C(=O)NCC(F)(F)F)ccc2nn(CC3CCN(C(=O)c4nc5ccccc5n4C)CC3)cc12 = xx (xx: 10-100)
• Cc1c(C(=O)NCC(F)(F)F)ccc2nn(CC3CCN(C(=O)c4ccc(Oc5ccc(C(F)(F)F)cc5)cc4)CC3)cc12 = xxx (xxx > 100)
• COc1c(C(=O)NCCN2CCC(F)(F)C2)ccc2nn(CC3CN(C(=O)c4ccc(Cl)cc4)C3)cc12 = xxx (xxx > 100)
• Cc1c(C(=O)NCCN2CCOCC2)ccc2nn(CC3CN(C(=O)c4ccc(Cl)cc4)C3)cc12 = xx (xx: 10-100)
• Cc1c(C(=O)NCC(C)OC2CCC2)ccc2nn(CC3CN(C(=O)c4ccc(Cl)cc4)C3)cc12 (racemic) [Example 154] = xxx (xxx > 100)
• COCCNC(=O)c1ccc2nn(CC3CCN(C(=O)c4ccc(-c5cccc(C(F)(F)F)n5)cc4)CC3)cc2c1C = xxx (xxx > 100)
• Cc1c(C(=O)NCCC(C)(C)O)ccc2nn(CC3CCN(C(=O)c4ccc(Cl)cc4)CC3)cc12 = xx (xx: 10-100)
• Cc1c(C(=O)NCC(F)(F)F)ccc2nn(CC3CCN(C(=O)c4ccc(Oc5ccc(F)cc5)cc4)CC3)cc12 = xxx (xxx > 100)
• Cc1c(C(=O)NCC2CCO2)ccc2nn(CC3CCN(C(=O)c4ccc(Cl)cc4)CC3)cc12 (racemic) = xxx (xxx > 100)

Provide Selectivity hEP2/hDP, tested on human PGD receptor (Homo sapiens, UniProt Q13258), for `Cc1c(C(=O)NCCOC(F)(F)F)ccc2nn(CC3CCN(C(=O)c4ccc(Cl)cc4)CC3)cc12` .
xxx (xxx > 100)

Provide Selectivity hEP2/hDP, tested on human PGD receptor (Homo sapiens, UniProt Q13258), for `COCCNC(=O)c1ccc2nn(CC3CN(C(=O)c4ccc(Oc5ccc(C(F)(F)F)cn5)cc4)C3)cc2c1C` .
xxx (xxx > 100)

Provide Selectivity hEP2/hDP, tested on human PGD receptor (Homo sapiens, UniProt Q13258), for COC(C)CNC(=O)c1ccc2nn(CC3CN(C(=O)c4ccc(Cl)cc4)C3)cc2c1C (single isomer, unassigned) [Example 139] .
xx (xx: 10-100)

Provide Selectivity hEP2/hDP, tested on human PGD receptor (Homo sapiens, UniProt Q13258), for `COCCNC(=O)c1ccc2nn(CC3CCN(C(=O)c4cn(C)c5ccccc45)CC3)cc2c1OC` .
xxx (xxx > 100)

Provide Selectivity hEP2/hDP, tested on human PGD receptor (Homo sapiens, UniProt Q13258), for `Cc1cc2nn(CC3CN(C(=O)c4ccc(Cl)cc4)C3)cc2cc1C(=O)NCCSC(F)(F)F` .
xxx (xxx > 100)
